# studySystem: CDK2/Cyclin E
# runDescription: Inhibition of CDK2/Cyclin E (unknown origin) using histone as substrate incubated for 30 mins in presence of gamma[33P]ATP by digital imaging analysis
Field: IC50. Provide a value for each of the compounds that follow.
Return type: number; implicit unit nM.

Problem: Consider the compound shown here: CCC(CO)Nc1nc(NCc2cc(C)ccc2O)c2ncn(C(C)C)c2n1 (stereo not drawn) What is its recorded IC50?
Solution: 20

Problem: Consider the compound shown here: CC(C)n1cnc2c(NCc3cc(Cl)ccc3O)nc(NCCC(C)(C)O)nc21 What is its recorded IC50?
Solution: 20

Problem: Consider the compound shown here: COc1cccc(CNc2nc(NC3CCCCC3N)nc3c2ncn3C(C)C)c1O (stereo not drawn) What is its recorded IC50?
Solution: 20

Source: BindingDB's records for PubMed 26907156
